- TEST_DESCRIPTION: Evaluation of liquid crystallinity (hot stage, polarization microscope)
- Type: physicochemical
- Set-up: key: A case of having liquid crystallinity was evaluated as A; a case of having no liquid crystallinity was evaluated as B
- MEASUREMENT_CONDITIONS: heated on a hot stage
EXPERIMENTAL_READOUT: Liquid crystallinity

{"MOLECULE": "C=CC(=O)OCCSc1ccc(C#Cc2ccc(OCc3ccc4cc(C#Cc5ccc(SCCOC(=O)C=C)cc5)ccc4c3)c(C(=O)OC)c2)cc1 [Compound A-2]", "RESULT": "A"}
{"MOLECULE": "C=CC(=O)OCCSc1ccc(C#Cc2ccc(OC(=O)c3ccc4cc(C#Cc5ccc(SCCOC(=O)C=C)cc5)ccc4c3)c(C(=O)OC)c2)cc1 [Compound A-10]", "RESULT": "A"}
{"MOLECULE": "C=CC(=O)OCCCCSc1nc2ccc(C#Cc3ccc(OCc4ccc5cc(C#Cc6ccc7nc(SCCCCOC(=O)C=C)sc7c6)ccc5c4)c(C(=O)OC)c3)cc2s1 [Compound A-9]", "RESULT": "A"}
